test system: CCRIS mutagenicity, Ames/micronucleus/aberration tests; assay: CCRIS mutagenicity studies; settings: Test System: AMES SALMONELLA TYPHIMURIUM; Strain/Indicator: TA100; Metabolic Activation: HAMSTER, LIVER, S-9, AROCLOR 1254 (10%); Method: PREINCUBATION
Active and inactive are the calls of the source. How the calls were made is not given here.
Possible outcomes: active, inactive

# MOLECULE, ASSIGNED LABEL
measured = [
    ("O=C1NC(=O)C(c2ccccc2)(c2ccccc2)N1", "inactive"),
    ("CCCCC(CC)COCC1CO1 (stereo not given)", "inactive"),
    ("O=C(Cl)c1ccccc1[N+](=O)[O-]", "active"),
    ("CCCCCCCCCCCCCCCCC1CO1 (stereo not given)", "inactive"),
    ("C=CC(=O)OCCCCCCOC(=O)C=C", "inactive"),
]

---

tested on: CCRIS mutagenicity, Ames/micronucleus/aberration tests; assay: CCRIS mutagenicity studies; conditions: Test System: AMES SALMONELLA TYPHIMURIUM; Strain/Indicator: TA100; Metabolic Activation: HAMSTER, LIVER, S-9, AROCLOR 1254; Method: STANDARD PLATE
Activity calls are given as the source filed them. The rule behind the calls is not given here.
Possible outcomes: active, inactive

# COMPOUND, ASSAYED TARGET, ASSIGNED LABEL
rows = [
    ("Nc1ccc2ccccc2c1N=Nc1ccccc1", "CCRIS mutagenicity, Ames/micronucleus/aberration tests", "inactive"),
    ("COc1cc(/C=C/C(=O)CC(=O)/C=C/c2ccc(O)c(OC)c2)ccc1O", "CCRIS mutagenicity, Ames/micronucleus/aberration tests", "inactive"),
    ("O=C1C=CC(=O)CC(=O)C1", "CCRIS mutagenicity, Ames/micronucleus/aberration tests", "inactive"),
    ("C/C=C/C=C/C=O", "CCRIS mutagenicity, Ames/micronucleus/aberration tests", "inactive"),
    ("CC(C)Cc1ccc(C(C)C(=O)O)cc1 (centres undefined)", "CCRIS mutagenicity, Ames/micronucleus/aberration tests", "inactive"),
    ("O=S(=O)(O)c1c(N=Nc2c(O)ccc3ccccc23)ccc2ccccc12", "CCRIS mutagenicity, Ames/micronucleus/aberration tests", "active"),
    ("CCOC(=O)CC(=O)CCl", "CCRIS mutagenicity, Ames/micronucleus/aberration tests", "inactive"),
    ("CCCO", "CCRIS mutagenicity, Ames/micronucleus/aberration tests", "inactive"),
    ("Oc1c(Br)cc(Br)cc1Br", "CCRIS mutagenicity, Ames/micronucleus/aberration tests", "inactive"),
]

---

Tested on: CCRIS mutagenicity, Ames/micronucleus/aberration tests
Experiment: CCRIS mutagenicity studies
Settings: Test System: AMES SALMONELLA TYPHIMURIUM; Strain/Indicator: TA98; Metabolic Activation: HAMSTER, LIVER, S-9, AROCLOR 1254; Method: STANDARD PLATE
Description: The CCRIS database contains chemical records with carcinogenicity, mutagenicity, tumor promotion, and tumor inhibition test results. It was developed by the National Cancer Institute (NCI). Data are derived from studies cited in primary journals, current awareness tools, NCI reports, and other sources. Test results have been reviewed by experts in carcinogenesis and mutagenesis. CCRIS provides historical information from the years 1985 - 2011. It is no longer updated. […]
Activity calls are given as the source filed them. The rule behind the calls is not given here.
Possible outcomes: 1 (yes) for active, 0 (no) for inactive

# MOLECULE, ASSIGNED LABEL
records = [
    ("C=C(C)OC(C)=O", "0 (no)"),
    ("CC(C)Cc1ccc(C(C)C(=O)O)cc1 (configuration not stated)", "0 (no)"),
    ("Cc1c(C(=O)O)c(O)cc2c1C(=O)c1c(O)c([C@@H]3O[C@H](CO)[C@@H](O)[C@H](O)[C@H]3O)c(O)c(O)c1C2=O", "0 (no)"),
    ("CN(C)c1ccc(N=Nc2cccc3ccccc23)cc1", "1 (yes)"),
    ("CC/C=C\\C/C=C\\C/C=C\\CCCCCCCC(=O)O", "0 (no)"),
    ("Cc1cc(N=Nc2ccccc2C)ccc1N", "1 (yes)"),
    ("C=CC(=O)OCCOC(=O)C=C", "0 (no)"),
    ("N[C@@H](CS)C(=O)O", "1 (yes)"),
    ("O=S(=O)(O)c1c(N=Nc2c(O)ccc3ccccc23)ccc2ccccc12", "1 (yes)"),
    ("CCCCC(CC)COC(=O)c1ccc(N(C)N=O)cc1 (configuration not stated)", "0 (no)"),
    ("Oc1c(Br)cc(Br)cc1Br", "0 (no)"),
    ("Nc1ncnc2c1ncn2[C@H]1CC[C@@H](CO)O1", "0 (no)"),
]

---

system: CCRIS mutagenicity, Ames/micronucleus/aberration tests; test: CCRIS mutagenicity studies; details: Test System: AMES SALMONELLA TYPHIMURIUM; Strain/Indicator: TA100; Metabolic Activation: NONE; Method: STANDARD PLATE
The source made the active and inactive calls. The rule behind the calls is not given here.
Possible outcomes: true (1) = active, false (0) = inactive

# MOLECULE, ASSIGNED LABEL
measured = [
    ("COc1cc(/C=C/C(=O)CC(=O)/C=C/c2ccc(O)c(OC)c2)ccc1O", "false (0)"),
    ("Fc1ccc(CCl)cc1", "false (0)"),
    ("COc1cc2c(c3oc(=O)c4c(c13)CC[C@H]4O)[C@@H]1C=CO[C@@H]1O2", "false (0)"),
    ("CCC(CCOCn1cc[n+](C)c1/C=N/O)[N+](=O)[O-] (configuration not stated)", "false (0)"),
    ("CCCCCCCC/C=C\\CCCCCCCCCCCC(=O)NCCCCCCCCCCCCCCCCCC", "false (0)"),
    ("[O-][n+]1cccc2c1C=C[C@H]1O[C@@H]21", "false (0)"),
    ("CCOc1cc(N=Nc2ccc(N(CC)CC)cc2)ccc1N=Nc1c(S(=O)(=O)O)cc2ccc(N)cc2c1O", "false (0)"),
    ("CCCCC(CC)COC(=O)c1ccc(N(C)N=O)cc1 (configuration not stated)", "false (0)"),
    ("CC(=O)Nc1ccc(S(=O)(=O)c2ccc(NC(C)=O)cc2)cc1", "false (0)"),
    ("O=C(O)c1oc([N+](=O)[O-])c(-c2ccccc2)c1-c1ccccc1", "true (1)"),
    ("CC(=O)ON(OCc1ccc(Oc2ccccc2)cc1)C(=O)c1ccccc1", "true (1)"),
    ("C=C(C#N)C(=O)OCC(C)C", "false (0)"),
    ("CC1CCCO1 (configuration not stated)", "false (0)"),
    ("CC(C)C(=O)Nc1ccccc1", "false (0)"),
    ("O=C(CCBr)N1CCN(C(=O)CCBr)CC1", "true (1)"),
    ("N#Cc1ccc(/C=C\\c2ccc([N+](=O)[O-])cc2)cc1", "true (1)"),
    ("O=c1cc[nH]c2ccccc12", "false (0)"),
    ("C=C(C)OC(C)=O", "false (0)"),
    ("CCCCO", "false (0)"),
    ("CCCCNc1snc2ccccc12", "false (0)"),
    ("COCCO", "false (0)"),
    ("O=[N+]([O-])c1cnc(CO)n1CCO", "true (1)"),
    ("CO[C@]1(CC[C@@H](C)CO[C@@H]2O[C@H](CO)[C@@H](O)[C@H](O)[C@H]2O)O[C@H]2C[C@H]3[C@@H]4CC=C5C[C@@H](O[C@@H]6O[C@H](CO)[C@@H](O)[C@H](O[C@@H]7O[C@H](CO)[C@@H](O)[C@H](O)[C@H]7O)C6O[C@@H]6O[C@@H](C)[C@H](O)[C@@H](O)[C@H]6O)CC[C@]5(C)[C@H]4CC[C@]3(C)[C@H]2[C@@H]1C (some centres not stated)", "false (0)"),
    ("Nc1ccc(Cl)c(N)c1", "false (0)"),
    ("Nc1ccc([N+](=O)[O-])cc1[N+](=O)[O-]", "false (0)"),
    ("O=C1OC(O)C(C(Br)Br)=C1Br (configuration not stated)", "true (1)"),
    ("NC(=O)[C@@H]1CCCN1C(=O)[C@H](Cc1cnc[nH]1)NC(=O)[C@@H]1CCC(=O)N1", "false (0)"),
    ("Nc1cc2nc3ccccc3nc2cc1O", "false (0)"),
    ("Cl.Cl.[Cr].c1ccc(-c2ccccn2)nc1.c1ccc(-c2ccccn2)nc1", "true (1)"),
    ("C[C@]12O[C@H]1[C@H]1CCCC[C@@H]1c1ccccc12", "false (0)"),
    ("ClCc1ccc(Cl)cc1", "false (0)"),
    ("ClC(Cl)=C(Cl)c1cccc(Cl)c1Cl", "false (0)"),
]

---

tested on: CCRIS mutagenicity, Ames/micronucleus/aberration tests; experiment: CCRIS mutagenicity studies; conditions: Test System: AMES SALMONELLA TYPHIMURIUM; Strain/Indicator: TA102; Metabolic Activation: NONE; Method: STANDARD PLATE
The source made the active and inactive calls. No rule for the calls is given here.
ENDPOINT LABEL: mutagenic call

# MOLECULE, ASSAYED TARGET, MEASUREMENT
rows = [
    ("CCCCC1C(=O)N(c2ccccc2)N(c2ccccc2)C1=O", "CCRIS mutagenicity, Ames/micronucleus/aberration tests", "inactive; negative"),
    ("Cc1cc(C)c(C)c(C)c1", "CCRIS mutagenicity, Ames/micronucleus/aberration tests", "inactive; negative"),
    ("COC(=O)c1ccc(C(=O)OC)cc1", "CCRIS mutagenicity, Ames/micronucleus/aberration tests", "inactive; negative"),
    ("NC1CCN(c2nc3c(cc2F)c(=O)c(C(=O)O)cn3-c2ccc(F)cc2F)C1 (centres undefined)", "CCRIS mutagenicity, Ames/micronucleus/aberration tests", "active; positive"),
    ("NCCNC(=O)c1ccc(Cl)cn1", "CCRIS mutagenicity, Ames/micronucleus/aberration tests", "inactive; negative"),
    ("COc1ccc(N)cc1", "CCRIS mutagenicity, Ames/micronucleus/aberration tests", "inactive; negative"),
    ("[Cd]", "CCRIS mutagenicity, Ames/micronucleus/aberration tests", "active; positive"),
    ("CC[n+]1c(-c2ccccc2)c2cc(N)ccc2c2ccc(N)cc21", "CCRIS mutagenicity, Ames/micronucleus/aberration tests", "inactive; negative"),
    ("O=C1NCCN1c1ncc([N+](=O)[O-])s1", "CCRIS mutagenicity, Ames/micronucleus/aberration tests", "active; positive"),
    ("CC(C)CN(N)CC(C)C", "CCRIS mutagenicity, Ames/micronucleus/aberration tests", "inactive; negative"),
    ("N[C@@H](CS)C(=O)O", "CCRIS mutagenicity, Ames/micronucleus/aberration tests", "active; positive"),
    ("COc1cccc2c1cc([N+](=O)[O-])c1c(C(=O)O)cc3c(c12)OCO3", "CCRIS mutagenicity, Ames/micronucleus/aberration tests", "active; positive"),
    ("CCOC(=O)c1[nH]c2ccccc2c1N=Cc1cc(OC)c(OC)c(OC)c1", "CCRIS mutagenicity, Ames/micronucleus/aberration tests", "inactive; negative"),
    ("CN(C)N", "CCRIS mutagenicity, Ames/micronucleus/aberration tests", "inactive; negative"),
    ("CCOP(=S)(OCC)Oc1cc(C)nc(C(C)C)n1", "CCRIS mutagenicity, Ames/micronucleus/aberration tests", "inactive; negative"),
    ("CC1=CC(=O)c2c(O)cccc2C1=O", "CCRIS mutagenicity, Ames/micronucleus/aberration tests", "inactive; negative"),
    ("CC1CCCO1 (centres undefined)", "CCRIS mutagenicity, Ames/micronucleus/aberration tests", "inactive; negative"),
    ("[O]=[Cr](=[O])([OH])[O][Cr](=[O])(=[O])[OH]", "CCRIS mutagenicity, Ames/micronucleus/aberration tests", "active; positive"),
    ("CCCCOO", "CCRIS mutagenicity, Ames/micronucleus/aberration tests", "active; positive"),
    ("Cc1ccncc1", "CCRIS mutagenicity, Ames/micronucleus/aberration tests", "inactive; negative"),
    ("O=C(O)C(Cl)(Cl)Cl", "CCRIS mutagenicity, Ames/micronucleus/aberration tests", "inactive; negative"),
    ("NN1C(=O)c2ccccc2C1=O", "CCRIS mutagenicity, Ames/micronucleus/aberration tests", "inactive; negative"),
    ("Cn1c([N+](=O)[O-])cnc1-c1nnc(N)s1", "CCRIS mutagenicity, Ames/micronucleus/aberration tests", "active; positive"),
    ("CNC(=O)c1cccc2c(Nc3ccc(NS(C)(=O)=O)cc3OC)c3cccc(C)c3nc12", "CCRIS mutagenicity, Ames/micronucleus/aberration tests", "active; positive"),
    ("Cc1cc(O)c2c(c1)C(=O)c1cc(O)cc(O)c1C2=O", "CCRIS mutagenicity, Ames/micronucleus/aberration tests", "inactive; negative"),
    ("C/C=C/C=C/CCCCCCCO", "CCRIS mutagenicity, Ames/micronucleus/aberration tests", "inactive; negative"),
    ("S=c1nc[nH]c2nc[nH]c12", "CCRIS mutagenicity, Ames/micronucleus/aberration tests", "inactive; negative"),
    ("CC[C@@]1(O)C[C@H](O[C@H]2C[C@H](N(C)C)[C@H](O[C@H]3C[C@H](O)[C@H](O)[C@H](C)O3)C(C)O2)c2c(cc3c(c2O)C(=O)c2c(O)ccc(O)c2C3=O)[C@H]1C(=O)OC (some centres undefined)", "CCRIS mutagenicity, Ames/micronucleus/aberration tests", "active; positive"),
    ("CCOC(=O)[C@@H](N)CS", "CCRIS mutagenicity, Ames/micronucleus/aberration tests", "active; positive"),
]
